Molecular target: T1, recombinant human activated Factor VII (FVIIa) (human, UniProt P08709 61-212; P08709 213-466, ten glutamate residues of the Gla domain may be gamma-carboxylated)
T1 construct: chains tethered by a disulfide bond; also called Factor VIIa; rFVIIa
T1 sequence 1: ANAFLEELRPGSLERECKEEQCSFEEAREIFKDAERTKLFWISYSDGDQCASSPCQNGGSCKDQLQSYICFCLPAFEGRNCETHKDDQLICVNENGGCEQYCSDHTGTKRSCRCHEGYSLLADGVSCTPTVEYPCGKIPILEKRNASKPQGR
T1 sequence 2: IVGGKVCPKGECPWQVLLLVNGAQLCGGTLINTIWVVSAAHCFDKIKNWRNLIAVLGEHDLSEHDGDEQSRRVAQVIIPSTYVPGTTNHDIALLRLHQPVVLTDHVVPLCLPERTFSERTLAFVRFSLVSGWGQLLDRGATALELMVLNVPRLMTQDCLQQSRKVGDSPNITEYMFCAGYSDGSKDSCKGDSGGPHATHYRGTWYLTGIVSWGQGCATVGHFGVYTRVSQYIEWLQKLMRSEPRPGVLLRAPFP
Assay: BLI (Fortebio)
METRIC: Kd (nM)

- VH SEQ ID NO 650 / VL SEQ ID NO 486 (antibody, IgG4, V domains shown, humanized 11F2; IgG4 S228P/kappa) VH: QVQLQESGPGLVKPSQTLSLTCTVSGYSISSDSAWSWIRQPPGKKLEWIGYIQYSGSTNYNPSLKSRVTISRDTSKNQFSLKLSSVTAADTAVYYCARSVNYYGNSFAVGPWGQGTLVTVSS VL: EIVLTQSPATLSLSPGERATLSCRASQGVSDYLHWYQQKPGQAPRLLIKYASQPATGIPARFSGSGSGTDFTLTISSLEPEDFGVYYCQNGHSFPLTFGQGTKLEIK: 1.3
- VH SEQ ID NO 562 / VL SEQ ID NO 502 (antibody, IgG4, V domains shown, humanized 11F2; IgG4 S228P/kappa) VH: QVQLQESGPGLVKPSDTLSLTCAVSGYSISSDSAWSWIRQPPGKGLEWIGYIQYSGSTNYNPSLKSRVTMSRDTSKNQFSLKLSSVTALDTAVYYCARSVNYYGNSFAVGPWGQGTLVTVSS VL: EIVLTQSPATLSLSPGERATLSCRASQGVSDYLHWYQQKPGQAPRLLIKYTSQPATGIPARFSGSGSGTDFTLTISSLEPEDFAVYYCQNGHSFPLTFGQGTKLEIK: 1.1
- VH SEQ ID NO 570 / VL SEQ ID NO 422 (antibody, IgG4, V domains shown, humanized 11F2; IgG4 S228P/kappa) VH: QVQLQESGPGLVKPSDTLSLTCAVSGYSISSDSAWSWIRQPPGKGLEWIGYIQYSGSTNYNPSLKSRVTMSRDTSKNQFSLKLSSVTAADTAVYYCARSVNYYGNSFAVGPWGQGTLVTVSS VL: EIVLTQSPATLSLSPGERATLSCRASQGVSDYLAWYQQKPGQAPRLLIKYASQPATGIPARFSGSGSGTDFTLTISSLEPEDFAVYYCQQGHSFPLTFGQGTKLEIK: 2400
- VH SEQ ID NO 594 / VL SEQ ID NO 470 (antibody, IgG4, V domains shown, humanized 11F2; IgG4 S228P/kappa) VH: QVQLQESGPGLVKPSDTLSLTCAVSGYSISSDSAWSWIRQPPGKKLEWIGYIQYSGSTNYNPSLKSRVTMSVDTSKNQFSLKLSSVTALDTAVYYCARSVNYYGNSFAVGPWGQGTLVTVSS VL: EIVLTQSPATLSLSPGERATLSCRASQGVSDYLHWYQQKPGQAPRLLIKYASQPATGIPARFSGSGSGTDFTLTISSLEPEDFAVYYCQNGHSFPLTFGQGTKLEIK: 35
- VH SEQ ID NO 578 / VL SEQ ID NO 350 (antibody, IgG4, V domains shown, humanized 11F2; IgG4 S228P/kappa) VH: QVQLQESGPGLVKPSDTLSLTCAVSGYSISSDSAWSWIRQPPGKGLEWIGYIQYSGSTNYNPSLKSRVTMSVDTSKNQFSLKLSSVTALDTAVYYCARSVNYYGNSFAVGPWGQGTLVTVSS VL: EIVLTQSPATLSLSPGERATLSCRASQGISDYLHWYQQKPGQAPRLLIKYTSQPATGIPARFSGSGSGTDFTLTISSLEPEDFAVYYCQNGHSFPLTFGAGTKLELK: 21

The reported numbers originate from patent US20220064329A1.
